For each of the molecules below, state its Ki.
tgt: BRD4 BD1 protein (Homo sapiens (Human), UniProt O60885)
protocol-notes: Fluorescence polarization binding affinity (Ki) with BRD4 BD1 protein
measurement-context: fluorescence polarization; Ki calculated from IC50
Counter-ions that a name gives are not always drawn.
Report only the number, with the unit nM understood.

Inquiry: Retrieve Ki measured for Cc1nnn2c1-c1ccc(-c3cccc4[nH]cnc34)cc1C(Nc1ccc(Cl)cc1)CC2 (centres unmarked) and print it.
Reply text: 53

Inquiry: Retrieve Ki measured for Cc1nnn2c1-c1ccc(C3=CCNCC3)cc1C(Nc1ccc(Cl)cc1)CC2 (centres unmarked) [RB99, hydrochloride] and print it.
Reply text: 422

Inquiry: Retrieve Ki measured for CCn1cc(-c2ccc3c(c2)C(Nc2ccc(Cl)cc2)CCn2nnc(C)c2-3)cn1 (centres unmarked) and print it.
Reply text: 23.2

Inquiry: Retrieve Ki measured for CNC(=O)c1ccc(NC2CCn3nnc(C)c3-c3ccc(-c4cnn(C)c4)cc32)cc1 (centres unmarked) and print it.
Reply text: 89.3

Inquiry: Retrieve Ki measured for Cc1nnn2c1-c1ccc(-c3cncc4[nH]ccc34)cc1C(Nc1ccc(Cl)cc1)CC2 (centres unmarked) and print it.
Reply text: 104

Inquiry: Retrieve Ki measured for Cc1nnn2c1-c1ccc(-c3cnn(C)c3)cc1C(Nc1ccccc1CO)CC2 (centres unmarked) and print it.
Reply text: 94.6

Inquiry: Retrieve Ki measured for Cc1nnn2c1-c1ccc(-c3cnn(C)c3)cc1C(Nc1ccc(CC#N)cc1)CC2 (centres unmarked) and print it.
Reply text: 32.9

Inquiry: Retrieve Ki measured for CCC(C)N1CC=C(c2ccc3c(c2)C(Nc2cccc(Cl)c2)CCn2nnc(C)c2-3)CC1 (centres unmarked) [BH87, 2,2,2-trifluoroacetate] and print it.
Reply text: 1100

Taken from patent US12286435B2.
